Experimental system: PAI-1 (Homo sapiens)
Sequence (P05121 24-402): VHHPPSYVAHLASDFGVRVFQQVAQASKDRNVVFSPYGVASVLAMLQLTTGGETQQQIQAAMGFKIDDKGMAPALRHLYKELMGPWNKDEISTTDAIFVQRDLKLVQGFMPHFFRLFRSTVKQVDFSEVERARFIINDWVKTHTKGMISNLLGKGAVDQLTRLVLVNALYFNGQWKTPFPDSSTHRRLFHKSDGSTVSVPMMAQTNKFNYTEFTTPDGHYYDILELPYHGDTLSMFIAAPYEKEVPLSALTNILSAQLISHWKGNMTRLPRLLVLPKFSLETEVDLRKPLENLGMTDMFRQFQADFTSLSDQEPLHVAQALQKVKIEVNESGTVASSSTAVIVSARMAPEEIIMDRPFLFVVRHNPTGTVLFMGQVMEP
Experimental details: biochemical
Study conditions: 6.25 μM; read-out: Degree of inhibition in PAI chromogenic substrate assay
Measured metric: inhibition at 6.25 µM (%)

CN(C)CCOc1ccc(/C=c2\[nH]c(=O)/c(=C/c3ccc(F)cc3F)[nH]c2=O)cc1 [Compound 1977]; 0

(P) CC(C)(C)CC(=O)Oc1ccc(/C=c2\[nH]c(=O)/c(=C/c3ccccc3)[nH]c2=O)cc1 [Compound 1889]
(Q) CN(C)CCOc1ccc(/C=c2\[nH]c(=O)/c(=C/c3ccccc3)[nH]c2=O)c(OCCN(C)C)c1 [Compound 1969]
(R) CN(C)CCCOc1ccc(/C=c2\[nH]c(=O)/c(=C/c3ccccc3)[nH]c2=O)cc1 [Compound 1852]
(S) CCCCCCOc1ccc(/C=c2\[nH]c(=O)/c(=C/c3ccc(OC)cc3)[nH]c2=O)cc1 [Compound 1907]
query: Please put the entries in order of rising inhibition at 6.25 µM. I'd appreciate it if you listed the labels in the requested order.
result: P, Q, R, S
